assay: Rat pharmacokinetics / bioavailability; format: in vivo; settings: male, Sprague-Dawley, plasma, po, 10 mg/kg P.O., read-out: Rat F %
readoutKind: bioavailability (%)
Answers are plain numbers, in %.

>>> quantitativeresult("CC(Cc1c(F)c(F)cc(F)c1F)Nc1cc[nH]c(=O)c1-c1nc2cc3c(cc2[nH]1)C(=O)N(C)C3 (stereo not drawn) [Compound 42]")
2.36
>>> quantitativeresult("C[C@@H](Cc1c(F)c(F)cc(F)c1F)Nc1cc[nH]c(=O)c1-c1nc2cc3c(cc2[nH]1)CN(CCN(C)C)C3=O [Compound 1]")
0.287

Here's the next entry for you.
According to the records, this compound CC(Cc1cc(F)ccc1F)Nc1cc[nH]c(=O)c1-c1nc2cc3c(cc2[nH]1)CNC3=O (stereo not drawn) [Compound 53] displays bioavailability of 0.402

* * *

biological target: TrkA (Homo sapiens (Human), UniProt P04629); assay: In vitro kinase activity assay (LANCE TR-FRET); assay type: biochemical; details: read-out: GTx-TrKA IC50;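 further: kinase reaction with poly-GT peptide substrate and ATP, phosphorylated product quantified by time-resolved FRET, eleven-point dose curves from 10^−11 to 10^−5 M in triplicate, DMSO as negative control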
Sequence (P04629 33-796): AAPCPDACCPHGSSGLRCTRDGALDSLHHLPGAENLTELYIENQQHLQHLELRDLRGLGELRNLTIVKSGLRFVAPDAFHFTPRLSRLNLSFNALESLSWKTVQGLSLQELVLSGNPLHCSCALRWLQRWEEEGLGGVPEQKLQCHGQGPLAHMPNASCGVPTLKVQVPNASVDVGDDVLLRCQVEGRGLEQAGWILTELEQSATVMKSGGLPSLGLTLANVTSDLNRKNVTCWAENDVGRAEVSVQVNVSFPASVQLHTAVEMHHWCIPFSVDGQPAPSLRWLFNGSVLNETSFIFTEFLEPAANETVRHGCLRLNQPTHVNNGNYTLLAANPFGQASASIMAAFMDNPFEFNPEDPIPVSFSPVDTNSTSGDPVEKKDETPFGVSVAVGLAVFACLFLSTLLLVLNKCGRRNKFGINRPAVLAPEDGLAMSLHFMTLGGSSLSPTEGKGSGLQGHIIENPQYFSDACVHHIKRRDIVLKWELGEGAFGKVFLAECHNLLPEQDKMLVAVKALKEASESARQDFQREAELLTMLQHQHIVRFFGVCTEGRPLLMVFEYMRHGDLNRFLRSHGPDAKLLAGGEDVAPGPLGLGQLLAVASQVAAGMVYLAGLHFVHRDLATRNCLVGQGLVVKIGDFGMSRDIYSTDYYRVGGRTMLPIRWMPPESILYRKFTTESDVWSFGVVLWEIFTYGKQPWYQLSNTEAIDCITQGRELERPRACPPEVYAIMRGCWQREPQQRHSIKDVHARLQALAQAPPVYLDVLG
readoutKind: pIC50
Numbers only, as −log10 of the molar value.

Examples with answers:
>>> quantitativeresult("Cc1ccc(F)cc1CC(C)Nc1cc[nH]c(=O)c1-c1nc2cc3c(cc2[nH]1)CN(C)C3=O (centres unmarked) [Compound 44]")
8.40
>>> quantitativeresult("CC(Cc1c(F)c(F)cc(F)c1F)Nc1cc[nH]c(=O)c1-c1nc2cc3c(cc2[nH]1)C(=O)N(C)C3 (centres unmarked) [Compound 42]")
8.15
>>> quantitativeresult("CC(Cc1cc(F)ccc1F)Nc1cc[nH]c(=O)c1-c1nc2cc3c(cc2[nH]1)CN(C)C3=O (centres unmarked) [Compound 33]")
8.30
>>> quantitativeresult("CC(Cc1c(F)c(F)cc(F)c1F)Nc1cc[nH]c(=O)c1-c1nc2cc3c(cc2n1C)C(=O)N(C)C3 (centres unmarked) [Compound 43a]")
5.19
>>> quantitativeresult("CC(Cc1cc(F)ccc1F)Nc1cc[nH]c(=O)c1-c1nc2cc3c(cc2[nH]1)C(=O)N(CC(O)CO)C3=O (centres unmarked) [Compound 34]")
8.15

Here is the next item to consider.
Sure, the documented pIC50 for CC(Cc1c(F)c(F)cc(F)c1F)Nc1cc[nH]c(=O)c1-c1nc2cc3c(cc2n1C)CN(C)C3=O (centres unmarked) [Compound 43] is 5.02

* * *

biological target: INSR (Homo sapiens (Human), UniProt P06213); experiment: In vitro kinase activity assay (LANCE TR-FRET); type: biochemical; settings: read-out: GTx-IRK IC50
Sequence (P06213 28-1382): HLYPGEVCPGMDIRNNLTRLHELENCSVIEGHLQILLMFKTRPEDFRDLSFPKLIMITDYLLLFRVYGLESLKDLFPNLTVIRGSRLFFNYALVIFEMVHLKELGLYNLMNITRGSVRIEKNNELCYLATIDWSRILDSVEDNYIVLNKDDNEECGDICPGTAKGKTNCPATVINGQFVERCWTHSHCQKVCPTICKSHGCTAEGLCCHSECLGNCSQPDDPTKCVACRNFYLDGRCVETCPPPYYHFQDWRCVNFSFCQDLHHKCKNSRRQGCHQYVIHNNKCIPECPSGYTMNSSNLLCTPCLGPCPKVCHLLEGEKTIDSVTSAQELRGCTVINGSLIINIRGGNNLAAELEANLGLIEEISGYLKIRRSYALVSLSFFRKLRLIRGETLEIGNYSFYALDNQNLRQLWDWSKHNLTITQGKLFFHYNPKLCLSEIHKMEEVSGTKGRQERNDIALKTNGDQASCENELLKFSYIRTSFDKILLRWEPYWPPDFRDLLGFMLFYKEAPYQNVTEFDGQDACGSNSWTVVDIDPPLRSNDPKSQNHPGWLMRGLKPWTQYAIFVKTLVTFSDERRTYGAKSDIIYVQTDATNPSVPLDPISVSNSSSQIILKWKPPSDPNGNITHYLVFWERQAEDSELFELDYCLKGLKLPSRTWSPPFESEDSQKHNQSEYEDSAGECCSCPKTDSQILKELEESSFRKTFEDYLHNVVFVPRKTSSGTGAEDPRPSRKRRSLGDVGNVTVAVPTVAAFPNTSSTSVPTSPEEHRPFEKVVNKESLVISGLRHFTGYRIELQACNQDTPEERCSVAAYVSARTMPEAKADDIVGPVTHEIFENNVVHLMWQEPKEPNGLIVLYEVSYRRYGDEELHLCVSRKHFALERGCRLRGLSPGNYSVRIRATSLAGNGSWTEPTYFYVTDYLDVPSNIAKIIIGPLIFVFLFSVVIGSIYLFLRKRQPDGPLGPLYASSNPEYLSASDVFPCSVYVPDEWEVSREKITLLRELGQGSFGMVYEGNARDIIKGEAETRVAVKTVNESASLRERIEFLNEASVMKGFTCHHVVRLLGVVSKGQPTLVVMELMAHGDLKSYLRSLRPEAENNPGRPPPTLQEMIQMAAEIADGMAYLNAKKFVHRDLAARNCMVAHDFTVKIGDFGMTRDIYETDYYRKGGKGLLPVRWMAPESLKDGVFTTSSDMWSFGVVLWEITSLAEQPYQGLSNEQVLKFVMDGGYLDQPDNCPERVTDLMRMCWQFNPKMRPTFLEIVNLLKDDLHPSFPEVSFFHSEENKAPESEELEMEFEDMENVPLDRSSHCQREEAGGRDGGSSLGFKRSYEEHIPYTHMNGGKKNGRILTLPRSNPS
pIC50: −log10 of the molar value.
readoutKind: pIC50

Query COc1cc([C@@H]2c3cc4c(cc3[C@H](O)[C@H]3COC(=O)[C@@H]23)OCO4)cc(OC)c1OC (racemic) [PPP, reference compound] yields pIC50 of < 5.00

* * *

target: hERG (human ether-a-go-go related gene) potassium channel (Homo sapiens (Human), UniProt Q12809); experiment: hERG potassium channel current, automated patch clamp (PatchXpress 7000A)
Sequence (Q12809 whole entry): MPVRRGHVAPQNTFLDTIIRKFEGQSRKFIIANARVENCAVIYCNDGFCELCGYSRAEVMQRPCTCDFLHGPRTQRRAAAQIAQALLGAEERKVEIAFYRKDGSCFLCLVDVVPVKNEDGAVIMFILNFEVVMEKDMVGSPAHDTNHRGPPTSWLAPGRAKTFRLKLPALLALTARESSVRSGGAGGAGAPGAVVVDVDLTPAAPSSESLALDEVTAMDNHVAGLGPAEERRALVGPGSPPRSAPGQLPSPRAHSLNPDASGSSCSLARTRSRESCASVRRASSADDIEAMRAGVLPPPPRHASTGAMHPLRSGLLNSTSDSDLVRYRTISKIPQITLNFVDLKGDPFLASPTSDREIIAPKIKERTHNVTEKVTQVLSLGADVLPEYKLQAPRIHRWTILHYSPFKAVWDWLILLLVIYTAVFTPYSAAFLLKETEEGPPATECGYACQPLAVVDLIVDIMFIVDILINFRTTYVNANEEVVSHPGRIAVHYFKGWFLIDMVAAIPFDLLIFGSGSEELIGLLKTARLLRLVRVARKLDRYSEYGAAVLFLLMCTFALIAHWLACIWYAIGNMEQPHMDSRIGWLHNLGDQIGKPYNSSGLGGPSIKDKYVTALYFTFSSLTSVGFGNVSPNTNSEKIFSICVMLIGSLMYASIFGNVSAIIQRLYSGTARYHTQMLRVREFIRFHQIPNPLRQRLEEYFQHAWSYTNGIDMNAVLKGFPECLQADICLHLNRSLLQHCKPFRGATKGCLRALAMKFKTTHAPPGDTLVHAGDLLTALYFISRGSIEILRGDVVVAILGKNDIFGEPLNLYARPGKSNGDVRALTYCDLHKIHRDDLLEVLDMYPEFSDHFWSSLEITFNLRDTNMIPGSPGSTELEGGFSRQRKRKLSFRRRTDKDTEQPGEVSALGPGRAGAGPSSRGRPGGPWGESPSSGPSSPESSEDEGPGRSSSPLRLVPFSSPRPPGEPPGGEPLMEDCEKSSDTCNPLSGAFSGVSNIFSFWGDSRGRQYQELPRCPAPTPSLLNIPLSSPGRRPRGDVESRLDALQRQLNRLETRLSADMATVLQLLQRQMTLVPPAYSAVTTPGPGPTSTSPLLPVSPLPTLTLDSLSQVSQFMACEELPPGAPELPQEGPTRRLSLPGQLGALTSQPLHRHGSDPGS
Record form. Attribute: IC50. Fill in for each entry.

>>> result("C[C@@H](Cc1c(F)c(F)cc(F)c1F)Nc1cc[nH]c(=O)c1-c1nc2cc3c(cc2[nH]1)C(=O)N(c1cccnc1)C3=O [Compound 12]")
"> 3 µM"
>>> result("C[C@@H](Cc1c(F)c(F)cc(F)c1F)Nc1cc[nH]c(=O)c1-c1nc2cc3c(cc2[nH]1)CN(CCN(C)C)C3=O [Compound 1]")
"6.25 µM"

We next turn to a different compound, shown below.
Form: compound = CC(Cc1cc(F)ccc1F)Nc1cc[nH]c(=O)c1-c1nc2cc3c(cc2[nH]1)CN(C)C3=O (stereo not drawn) [Compound 33] ; IC50 = > 10 µM

* * *

experiment: Caco-2 cell permeation study; type: in vitro ADME; conditions: human, Caco-2; 10 μM, basolateral pH 7.4, 2 h;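 further: Caco-2 monolayers grown for 21–28 days with integrity confirmed by TEER, apical buffer HBSS with MES, basolateral buffer HBSS with HEPES, compound levels quantified by LC/MS/MS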
readoutKind: Papp B→A at 2 h, 10 μM (×10⁻⁶ cm/s)
Numbers only, in ×10⁻⁶ cm/s.

Kindly note the recorded Papp B→A at 2 h, 10 μM for C[C@@H](Cc1c(F)c(F)cc(F)c1F)Nc1cc[nH]c(=O)c1-c1nc2cc3c(cc2[nH]1)CN(CCN(C)C)C3=O , which is 19.9

* * *

test: Metabolic stability, Phase I microsome reactions; details: rat, microsomes, pH 7.4, Rat LM-P1 Half-life (min), Phase I only, 0.5 μM, 1.0 mg/ml microsomes;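 further: compound at 0.5 µM incubated with rat liver microsomes (1.0 mg/ml protein) plus NADPH regenerating system at 37 °C, sampled up to 60 min, remaining parent quantified by LC-MS/MS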
readoutKind: half-life at 0.5 μM

# half-life at 0.5 μM of C[C@@H](Cc1c(F)c(F)cc(F)c1F)Nc1cc[nH]c(=O)c1-c1nc2cc3c(cc2[nH]1)CN(CCN(C)C)C3=O = 6.99 min

* * *

test: Guinea pig pharmacokinetics; details: plasma, iv, 10 mg/kg
readoutKind: AUC(0-t) (ng·h/mL)
Answers are plain numbers, in ng·h/mL.

AUC(0-t) measured on C[C@@H](Cc1c(F)c(F)cc(F)c1F)Nc1cc[nH]c(=O)c1-c1nc2cc3c(cc2[nH]1)CN(CCN(C)C)C3=O = 3570

* * *

test: Rat pharmacokinetics / bioavailability; assay type: in vivo; details: male, Sprague-Dawley, plasma, iv, 10 mg/kg I.V.
readoutKind: half-life (h)
Give bare numbers, in h.

Form field half-life, entry C[C@@H](Cc1c(F)c(F)cc(F)c1F)Nc1cc[nH]c(=O)c1-c1nc2cc3c(cc2[nH]1)CN(CCN(C)C)C3=O : 22.1

* * *

Give measured Cmax for each item. Keep answers brief.
test: Rat pharmacokinetics / bioavailability; format: in vivo; settings: male, Sprague-Dawley, plasma, po, 10 mg/kg P.O.
Answers are plain numbers, in µg/mL.

>>> quantitativeresult("C[C@@H](Cc1c(F)c(F)cc(F)c1F)Nc1cc[nH]c(=O)c1-c1nc2cc3c(cc2[nH]1)CN(CCN(C)C)C3=O [Compound 1]")
0.00221

Now, please, on to the next compound.
The reported Cmax of the compound CC(Oc1cc(-c2cnn(C3CCNCC3)c2)cnc1N)c1c(Cl)ccc(F)c1Cl (racemic) [PF2341066, crizotinib, reference compound] was 0.0583

* * *

target: hERG potassium channel (Homo sapiens (Human), UniProt Q12809); test: hERG potassium channel current, automated patch clamp (PatchXpress 7000A); details: human, Mean % hERG Inhibition, 3 μM;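 further: Four-point series of 0.3, 3, 10 and 30 µM, two cells recorded per concentration, 5 min exposure at each level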
readoutKind: inhibition at 5 min, 3 µM (%)
One number for each entry, in %.

Per the record, C[C@@H](Cc1c(F)c(F)cc(F)c1F)Nc1cc[nH]c(=O)c1-c1nc2cc3c(cc2[nH]1)CN(CCN(C)C)C3=O [Compound 1] has inhibition at 5 min, 3 µM of 39.9

* * *

tested on: SUDHL-1 lymphoma cells; test: Cellular assay, 3 day cell viability (WST-1); type: cell-based; details: Homo sapiens, SU-DHL-1, 72 h, read-out: GTx-SUDHL-1 IC50 (uM)
readoutKind: IC50 (µM)
Give bare numbers, in µM.

Given item CC(Oc1cc(-c2cnn(C3CCNCC3)c2)cnc1N)c1c(Cl)ccc(F)c1Cl (racemic) [PF2341066, crizotinib, reference compound] , the value recorded as its IC50 is 0.132

* * *

experiment: Rat pharmacokinetics / bioavailability; type: in vivo; conditions: male, Sprague-Dawley, plasma, po, 10 mg/kg P.O.
readoutKind: Tmax (h)
Numbers only, in h.

>>> quantitativeresult("CC(Oc1cc(-c2cnn(C3CCNCC3)c2)cnc1N)c1c(Cl)ccc(F)c1Cl (racemic) [PF2341066, crizotinib, reference compound]")
5.25

Now take the following molecule into account.
Data point: C[C@@H](Cc1c(F)c(F)cc(F)c1F)Nc1cc[nH]c(=O)c1-c1nc2cc3c(cc2[nH]1)CN(CCN(C)C)C3=O [Compound 1] ; Tmax = 1.88

* * *

tested on: U937 lymphoma cells; experiment: Cellular assay, 3 day cell viability (WST-1); assay type: cell-based; settings: Homo sapiens, U-937, 72 h; 3 days, WST-1; read-out: GTx-U937 IC50
pIC50: −log10 of the molar value.
Hi there, I'd appreciate the recorded pIC50 for every entry that follows.

Sample answers from the record:
>>> result("CC(Cc1cc(F)ccc1F)Nc1cc[nH]c(=O)c1-c1nc2cc3c(cc2[nH]1)C(=O)N(C(C)C)C3=O (centres unmarked)")
"< 5.52"
>>> result("C[C@@H](Cc1cc(F)ccc1F)Nc1cc[nH]c(=O)c1-c1nc2cc3c(cc2[nH]1)C(=O)N(C)C3=O")
"< 5.52"
>>> result("CC(Cc1cc(F)ccc1F)Nc1cc[nH]c(=O)c1-c1nc2cc3c(cc2[nH]1)CN(C(C)C)C3=O (centres unmarked)")
"< 5.52"
>>> result("C[C@@H](Cc1cc(F)cc(F)c1F)Nc1cc[nH]c(=O)c1-c1nc2cc3c(cc2[nH]1)C(=O)N([C@@H](C)Cc1cc(F)cc(F)c1F)C3=O (stereo in doubt)")
"< 5.00"

Continue with the compound presented below.
Reported pIC50 ( CC(Cc1c(F)c(F)cc(F)c1F)Nc1cc[nH]c(=O)c1-c1nc2cc3c(cc2n1C)CN(C)C3=O (centres unmarked) ) = < 5.00

Values from patent US8822500B2
